B1: SLC2A12 (parent)
chain: TRIMIGLTLVFFVQITGQPNILFY

variants of: B1; assay: protein stability index of a GFP-peptide fusion (GPS, HEK-293T) (PSI 1-6); higher = more stable; settings: c terminus: a fixed tail appended;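 note: lentivirally expressed fusions sorted by FACS into six bins by GFP to DsRed ratio, PSI derived from sequencing read proportions per bin multiplied by bin number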
Threshold rule: protein stability index greater than or equal to 3 is rule met; below that, rule not met.

Mutation list	Label value
N20R	rule not met
Q14E	rule not met
Q14I	rule not met
V13S	rule not met
F12H	rule met
Y24E	rule met
F12A	rule met
F23G	rule met
I3L	rule not met
F11Q	rule met
